Test system: Wolbachia pipientis
assay.method.text: Anti-Wolbachia Cell-Based Screen
Assay type: functional
Design: scale not given: in the data most compounds retested in dose-response had high values
cond: 5 µM
In all, about 48,000 compounds went through this assay and about 13,000 (27%) showed an effect of 50% or more. The list shows a part of the results.
Entries and their Percent Effect values follow.
Note: unit % is implicit; provide only the numeric part.

Worked cases, Percent Effect given:
Cc1cc(C[C@@H]2COC[C@@H]2NC(=O)CN2CCCN(C)CC2)on1 :: -4.417
CSCc1cc(F)ccc1CNCc1cccnc1 :: 101.5
CCn1cc(CN2CCCN(C(=O)c3sccc3C#N)CC2)cn1 :: -3.745
Fc1ccc(NCc2ccncc2)c(OC(F)F)c1 :: -6.491
CN1CCc2cc(C(=O)N(C)C)c(NCC3CC3)nc2CC1.O=C(O)C(F)(F)F.O=C(O)C(F)(F)F :: 92.24

Q: Supply recorded Percent Effect for `COc1ccccc1C(=O)Nc1ccc(OC2CCN(C)CC2)cc1` here.
Ans: -27.65

Q: Let me know recorded Percent Effect for `Cc1ccc(S(=O)(=O)N2CCC(Oc3cccnn3)CC2)c(C)c1` , thanks.
Ans: -2.974
